Tested on: Key Broadleaf Weed and Crop Species
Method notes: Post-emergent Test II herbicidal activity (Table 5)
Assay type: in vivo
Test parameters: post-emergence, 336 h; VIOTR: wild pansy (Viola tricolor); application rate 70 g ai/ha; 14 days after application; read-out: Visual Growth Reduction (%) 14 Days After Application, VIOTR
Metric: pest or weed control at 70 g/ha

// batch mode: one pest or weed control at 70 g/ha value per listed entry
1. COC(=O)c1nc(-c2ccc(F)c(F)c2F)c(F)c(N)c1Cl [Compound 186]
2. Nc1c(F)c(-c2ccc(C(F)(F)F)c(F)c2F)nc(C(=O)O)c1Cl [Compound 167]
3. Nc1c(F)c(-c2ccc(Br)cc2)nc(C(=O)O)c1Cl [Compound 20]
4. COC(=O)c1nc(-c2ccc(Br)cc2)nc(N)c1OC [Compound 97]
5. COC(=O)c1nc(-c2ccc(C(F)(F)F)c(F)c2F)c(F)c(N)c1Cl [Compound 149]
6. COC(=O)c1nc(-c2ccc(I)cc2)c(F)c(N)c1Cl [Compound 118]

Return:
85 to 94%
95 to 100%
95 to 100%
60 to 74%
85 to 94%
85 to 94%

// batch mode: one pest or weed control at 70 g/ha value per listed entry
1. Nc1c(F)c(-c2ccc(OC(F)F)c(F)c2F)nc(C(=O)O)c1Cl [Compound 19]
2. COC(=O)c1nc(-c2ccc(I)c(F)c2F)c(F)c(N)c1Cl [Compound 99]
3. COC(=O)c1nc(-c2ccc(Br)cc2F)c(F)c(N)c1Cl [Compound 52]
4. COC(=O)c1nc(-c2ccc(C)c(F)c2F)c(F)c(N)c1Cl [Compound 211]
5. COC(=O)c1nc(-c2ccc(I)cc2F)nc(N)c1OC [Compound 82]
6. Nc1cc(-c2ccc(Br)c(F)c2F)nc(C(=O)O)c1Cl [Compound 91]
7. N#Cc1ccc(-c2nc(C(=O)O)c(Cl)c(N)c2F)cc1F [Compound 156]

Return:
["0 to 29%", "95 to 100%", "95 to 100%", "0 to 29%", "60 to 74%", "95 to 100%", "60 to 74%"]

* * *

Provide the reported pest or weed control at 70 g/ha of each item.
Test system: Key Broadleaf Weed and Crop Species
Method notes: Post-emergent Test II herbicidal activity (Table 5)
Assay type: in vivo
Test parameters: post-emergence, 336 h; ABUTH: velvetleaf (Abutilon theophrasti); application rate 70 g ai/ha; 14 days after application; read-out: Visual Growth Reduction (%) 14 Days After Application, ABUTH

C#Cc1ccc(-c2nc(N)c(OC)c(C(=O)OC)n2)c(F)c1 = 0 to 29%
Cc1ccc(-c2nc(C(=O)O)c(Cl)c(N)c2F)cc1F = 95 to 100%
COC(=O)c1nc(-c2ccc(Br)cc2F)nc(N)c1OC = 95 to 100%
C#Cc1ccc(-c2nc(C(=O)O)c(Cl)c(N)c2F)cc1F = 0 to 29%
Nc1c(F)c(-c2ccc(Br)cc2F)nc(C(=O)O)c1Cl = 85 to 94%
Nc1c(F)c(-c2ccc(OC(F)F)cc2)nc(C(=O)O)c1Cl = 85 to 94%
Nc1c(F)c(-c2ccc(OC(F)F)c(F)c2)nc(C(=O)O)c1Cl = 0 to 29%
COC(=O)c1nc(-c2ccccc2F)c(F)c(N)c1Cl = 95 to 100%
N#Cc1ccc(-c2nc(C(=O)O)c(Cl)c(N)c2F)cc1 = 30 to 44%

Let me check: `COC(=O)c1nc(-c2ccc(Br)c(F)c2F)c(F)c(N)c1Cl` , system Key Broadleaf Weed and Crop Species, measured pest or weed control at 70 g/ha is 95 to 100%
